Reference source for all entries: patent US20260091026A1

target: RIPK2 (KD)/XIAP (BIR2) (Homo sapiens); assay: RIPK2-XIAP binding competition PPI assay (TR-FRET); conditions: GST-RIPK2 / His-XIAP (BIR2)-avi, 120 min at 23° C.
QUANTITY_NAME: IC50

CN1CCC(Nc2cncc(-c3cc(NC(=O)Cc4ccccc4Cl)n(C)n3)c2)CC1 :: 100 to 1000 nM
COc1cc2ncc(-n3cc(NC(=O)Cc4ccccc4)cn3)n2cc1S(=O)(=O)C(C)(C)C :: 100 to 1000 nM
COc1cc2ncc(-c3cc(C(=O)N[C@H](C)c4ncccn4)n(C4CC4)n3)n2cc1S(=O)(=O)C(C)(C)C :: < 10 nM

Let us examine a further case.
In plain terms, COc1cc2ncc(-c3cc(C(=O)N[C@@H](C)C4CC4)n(C)n3)n2cc1S(=O)(=O)C(C)(C)C has a documented IC50 of > 1000 nM

----------
Target: RIPK2 (KD)/XIAP (BIR2) (Homo sapiens, UniProt O43353)
Sequence (O43353 1-310): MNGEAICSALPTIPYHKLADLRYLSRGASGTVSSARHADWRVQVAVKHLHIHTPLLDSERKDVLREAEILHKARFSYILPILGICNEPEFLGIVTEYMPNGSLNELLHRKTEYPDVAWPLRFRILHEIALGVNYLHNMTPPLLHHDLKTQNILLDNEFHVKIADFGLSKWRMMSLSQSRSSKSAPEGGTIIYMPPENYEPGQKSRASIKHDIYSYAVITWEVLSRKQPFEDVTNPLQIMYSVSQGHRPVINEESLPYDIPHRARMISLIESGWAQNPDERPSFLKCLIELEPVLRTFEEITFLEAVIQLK
Assay: RIPK2-XIAP binding competition PPI assay (TR-FRET)
Settings: GST-RIPK2 / His-XIAP (BIR2)-avi, 120 min at 23° C.
Description: The ability of selected compounds of Formula (I) to inhibit the binding of an His-XIAP (BIR2)-avi fusion protein to a GST-RIPK2 fusion protein was quantified employing the TR-FRET-based competition assay as described in the following paragraphs. […]
Below is a list of entries, each paired with its recorded IC50 value.

COc1cc2ncc(-c3cc(C(=O)N[C@H](C)c4ccc(F)cn4)n(C)n3)n2cc1S(=O)(=O)C(C)(C)C :: 10 to 100 nM

In plain terms, COCCn1nc(-c2cnc3cc(OCCO)c(S(=O)(=O)C(C)(C)C)cn23)cc1C(=O)N[C@H](C)c1ncccc1F has a documented IC50 of 10 to 100 nM

In plain terms, CCn1nc(-c2cnc3cc(OCCO)c(S(=O)(=O)C(C)(C)C)cn23)cc1C(=O)N[C@H](C)c1ccn(C)n1 has a documented IC50 of 10 to 100 nM

----------
target: RIPK2 (KD)/XIAP (BIR2) (Homo sapiens); construct: made in house; host or cells: baculovirus-infected Sf9 cells; assay: RIPK2-XIAP binding competition PPI assay (TR-FRET); conditions: GST-RIPK2 / His-XIAP (BIR2)-avi, 120 min at 23° C.
pIC50: −log10 of the molar value.
QUANTITY_NAME: pIC50

COc1cc2ncc(-c3cc(C(=O)N[C@H](C)C4CC4)n(C)n3)n2cc1S(=O)(=O)C(C)(C)C [Example 35] :: < 6.00

In plain terms, COc1cc2ncc(-c3cc(C(=O)NCc4cnn(C)c4)n(C)n3)n2cc1S(=O)(=O)C(C)(C)C [Example 25] has a documented pIC50 of < 6.00

In plain terms, COc1cc2ncc(-n3cc(N4CCC5(CCCCC5)C4=O)cn3)n2cc1S(=O)(=O)C(C)(C)C [Example 181] has a documented pIC50 of < 6.00

In plain terms, C[C@@H](CO)COc1cc2ncc(-c3cc(NC(=O)Cc4ccccc4Cl)n(C)n3)n2cc1S(=O)(=O)C(C)(C)C [Example 188] has a documented pIC50 of > 8.00

In plain terms, COc1cc2ncc(-c3cc(C(=O)N(C)C)n(C)n3)n2cc1S(=O)(=O)C(C)(C)C [Example 5] has a documented pIC50 of < 6.00

In plain terms, C[C@@H](NC(=O)c1cc(-c2cnc3cc(OCCO)c(S(=O)(=O)C(C)(C)C)cn23)nn1C1COC1)c1ncccc1F [Example 139] has a documented pIC50 of 7.00 to 8.00

In plain terms, COc1cc2ncc(-c3cc(C(=O)NCc4ccccc4)n(C)n3)n2cc1S(=O)(=O)C(C)(C)C [Example 28] has a documented pIC50 of 6.00 to 7.00

In plain terms, COc1cc2ncc(-n3cc(NC(=O)Cc4ccc(F)cc4Cl)cn3)n2cc1S(=O)(=O)C(C)(C)C [Example 158] has a documented pIC50 of < 6.00

In plain terms, CCn1nc(-c2cnn3cc(OCCO)c(S(=O)(=O)C(C)(C)C)cc23)cc1C(=O)N[C@H](C)c1ncccn1 [Example 117] has a documented pIC50 of 7.00 to 8.00
